# Measured On: T1, N-terminally biotinylated recombinant human PADI4 (bio-His-PADI4) (human, UniProt Q9UM07 1-663, biotin on the N-terminal Avi-Tag (BirA))
# T1 construct: human peptidylarginine deiminase IV (PADI4), residues 1-663; (vector p28BIOH-LIC, Addgene plasmid 62352); also called Bio-hPADI4 wt; PADI4_WT; source: E. coli BL21-DE3 co-expressing biotin ligase (BirA), purified (Ni-NTA, S200 SEC); not shown: Avi-Tag (biotinylated), N-terminal, kept; His6, N-terminal, kept
# Assay Text: SPR; as a1 but 0 mM CaCl2 (calcium-free running buffer); Bio-His-PADI4 captured, peptide as analyte; 25 °C; 1:1 binding model
# Particulars: both partners purified
Measured Property: Kd

Recorded Kd for YYPKGSWGYKLFCG (not fully specified; D-tyrosine at position 1; cyclised via a thioether bond between the N-terminus (chloroacetylated) and the cysteine side chain (Cys13, from the letters); C-terminal amide, cyclic peptide from RaPID selection 2 (0 mM CaCl2); also called PAD4_7; source: synthetic peptide (Fmoc solid-phase synthesis, HPLC purified)) [PADI4_7] , please? 8 nM

Next up: YFYRIGFWYPNYQCG (not fully specified; D-tyrosine at position 1; cyclised via a thioether bond between the N-terminus (chloroacetylated) and the cysteine side chain (Cys14, from the letters); C-terminal amide, cyclic peptide from RaPID selection 1 (10 mM CaCl2); also called PAD4_1; source: synthetic peptide (Fmoc solid-phase synthesis, HPLC purified)) [PADI4_1] 105 nM

Next up: YATPWLIVVLCG (not fully specified; D-tyrosine at position 1; cyclised via a thioether bond between the N-terminus (chloroacetylated) and the cysteine side chain (Cys11, from the letters); C-terminal amide, cyclic peptide from RaPID selection 1 (10 mM CaCl2); source: synthetic peptide (Fmoc solid-phase synthesis, HPLC purified)) [PADI4_5] > 2000 nM

Next up: YPWEISVWLLYCG (not fully specified; D-tyrosine at position 1; cyclised via a thioether bond between the N-terminus (chloroacetylated) and the cysteine side chain (Cys12, from the letters); C-terminal amide, cyclic peptide from RaPID selection 2 (0 mM CaCl2); source: synthetic peptide (Fmoc solid-phase synthesis, HPLC purified)) [PADI4_10] > 2000 nM

Next up: YLVLTIRLVLCG (not fully specified; D-tyrosine at position 1; cyclised via a thioether bond between the N-terminus (chloroacetylated) and the cysteine side chain (Cys11, from the letters); C-terminal amide, cyclic peptide from RaPID selection 1 (10 mM CaCl2); source: synthetic peptide (Fmoc solid-phase synthesis, HPLC purified)) [PADI4_6] > 2000 nM

Next up: YAQWYIWVLLCG (not fully specified; D-tyrosine at position 1; cyclised via a thioether bond between the N-terminus (chloroacetylated) and the cysteine side chain (Cys11, from the letters); C-terminal amide, cyclic peptide from RaPID selection 2 (0 mM CaCl2); source: synthetic peptide (Fmoc solid-phase synthesis, HPLC purified)) [PADI4_9] > 2000 nM

Next up: YTLWTVLVVICCG (not fully specified; D-tyrosine at position 1; cyclised via a thioether bond between the N-terminus (chloroacetylated) and the cysteine side chain (the cysteine marked C(S-), Cys11 from the letters); C-terminal amide, cyclic peptide from RaPID selection 2 (0 mM CaCl2); source: synthetic peptide (Fmoc solid-phase synthesis, HPLC purified)) [PADI4_8] > 2000 nM

Next up: YHRLIVVIYVCG (not fully specified; D-tyrosine at position 1; cyclised via a thioether bond between the N-terminus (chloroacetylated) and the cysteine side chain (Cys11, from the letters); C-terminal amide, cyclic peptide from RaPID selection 1 (10 mM CaCl2); source: synthetic peptide (Fmoc solid-phase synthesis, HPLC purified)) [PADI4_4] > 2000 nM
